Target: PLK1 (Homo sapiens, UniProt P53350)
Sequence (P53350 whole entry): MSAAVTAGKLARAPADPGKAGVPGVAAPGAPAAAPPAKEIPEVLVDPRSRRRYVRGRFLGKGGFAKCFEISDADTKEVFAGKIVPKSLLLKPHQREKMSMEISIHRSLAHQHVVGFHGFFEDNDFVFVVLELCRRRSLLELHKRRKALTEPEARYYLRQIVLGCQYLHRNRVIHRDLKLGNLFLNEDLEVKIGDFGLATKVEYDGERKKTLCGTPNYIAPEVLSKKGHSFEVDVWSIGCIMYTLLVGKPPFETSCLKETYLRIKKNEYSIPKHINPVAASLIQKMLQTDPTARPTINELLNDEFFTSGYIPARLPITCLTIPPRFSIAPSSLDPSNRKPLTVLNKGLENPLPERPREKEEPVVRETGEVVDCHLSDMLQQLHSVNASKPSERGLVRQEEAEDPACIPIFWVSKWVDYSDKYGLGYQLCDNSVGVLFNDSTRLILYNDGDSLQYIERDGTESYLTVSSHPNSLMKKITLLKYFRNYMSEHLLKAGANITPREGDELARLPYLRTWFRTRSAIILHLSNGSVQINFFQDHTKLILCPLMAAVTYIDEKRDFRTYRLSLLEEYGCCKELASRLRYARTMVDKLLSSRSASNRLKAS
Experiment: PLK TR-FRET peptide assay, PLK1
Format: biochemical
Details: GST-PLK1, 60 min reaction
Listed molecules paired with reported IC50

Worked cases, answers included:
Molecule	Test Target	IC50
CC[C@@H]1C(=O)N(C)c2cnc(-n3ccnc3-c3cc(Cl)cc(Cl)c3)nc2N1C(C)C	PLK1 (Homo sapiens, UniProt P53350)	1 to 10 µM
CC[C@@]12CCCCN1c1nc(-n3ccnc3-c3ccc(F)cc3F)ncc1N(C)C2=O	PLK1 (Homo sapiens, UniProt P53350)	10 to 50 µM
CC[C@@H]1C(=O)N(C)c2cnc(-c3ccncc3CNS(C)(=O)=O)nc2N1C(C)C	PLK1 (Homo sapiens, UniProt P53350)	> 50 µM
CCC1C(=O)N(C)c2cnc(-n3cc[n+](C)c3-c3ccccc3)nc2N1NC (stereo not shown)	PLK1 (Homo sapiens, UniProt P53350)	> 50 µM
CC[C@@H]1C(=O)N(C)c2cnc(-c3cccc(S(C)(=O)=O)c3)nc2N1C1CCCC1	PLK1 (Homo sapiens, UniProt P53350)	1 to 10 µM

IC50 lookup needed for CC[C@@H]1C(=O)N(C)c2cnc(-n3ccnc3-c3ccc(F)c(F)c3)nc2N1C1CCOC1 (stereo partly shown) , thanks.
1 to 10 µM

IC50 lookup needed for "CC[C@@H]1C(=O)N(C)c2cnc(-c3ccncc3CNS(=O)(=O)c3ccccc3)nc2N1C(C)C" , thanks.
10 to 50 µM

IC50 lookup needed for "CC[C@@H]1C(=O)N(C)c2cnc(-n3ccnc3-c3cc(F)cc(C(F)(F)F)c3)nc2N1C1CCC1" , thanks.
1 to 10 µM

IC50 lookup needed for "CC[C@@H]1C(=O)N(C)c2cnc(-c3cccc(C(=O)N(C)C)c3)nc2N1C1CCCC1" , thanks.
1 to 10 µM

IC50 lookup needed for "CC[C@@]12CCCN1c1nc(-c3cncnc3-c3ccccc3)ncc1N(C)C2=O" , thanks.
10 to 50 µM

IC50 lookup needed for "CN1C(=O)[C@H]2CCCN2c2nc(-c3ccncc3)ncc21" , thanks.
> 50 µM
